# Test system: SARS-CoV-2 spike S1 protein (SARS-CoV-2, UniProt P0DTC2 16-685)
pKd: −log10 of the molar value.
Value kind: pKd

* AB-009666 (antibody, V domains shown) VH: EVQLVESGGGLVQPGGSLRLSCAASGFTFSSYDMHWVRQATGKGLEWVSTIGTAGDTYYPGSVKGRFTISRENAKNSLYLQMNSLRAEDTAVYYCARVNYDSSGYPTYWYFDLWGRGTLVTVSS VL: DIQMTQSPSSLSASVGDRVTITCRASQSISRYLNWYQQKPGKAPKLLIYAASSLQSGVPSRFSGSGSGTDFTLTISSLQPEDFATYNCQQSYSSPPWTFGQGTKVEIK | 7.92
